- testedSystem: T1, human CD3ε/δ-Fc fusion protein (soluble recombinant CD3ε/δ complex) (human, UniProt P04234 22-105)
- T1 construct: also called huCD3ε/δ; huCD3; not shown: hinge, CH2, CH3 of human IgG with tag
- T1 sequence (chain, as listed by the source mutant, chain 1 of 2): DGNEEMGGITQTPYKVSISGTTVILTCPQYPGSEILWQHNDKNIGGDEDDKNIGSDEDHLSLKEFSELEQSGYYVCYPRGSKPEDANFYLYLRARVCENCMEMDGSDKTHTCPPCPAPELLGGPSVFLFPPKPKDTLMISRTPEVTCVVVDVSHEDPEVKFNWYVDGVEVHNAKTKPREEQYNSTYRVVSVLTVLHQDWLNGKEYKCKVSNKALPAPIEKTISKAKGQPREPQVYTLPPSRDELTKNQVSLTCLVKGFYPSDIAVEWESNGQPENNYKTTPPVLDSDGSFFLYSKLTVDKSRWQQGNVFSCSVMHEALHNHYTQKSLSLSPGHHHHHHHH
- T1 sequence (P04234 22-105, stated change not applied, chain 2 of 2): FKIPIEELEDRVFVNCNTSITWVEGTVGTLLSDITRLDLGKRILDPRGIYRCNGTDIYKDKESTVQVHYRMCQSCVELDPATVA
- test: SPR Biacore, CD3εδ-Fc captured, Fab analyte
pKd: −log10 of the molar value.
quantityMeasured: pKd

binder: 1E6-C9 Fab (Fab, V domains shown, also called 1E6-B8; 1E6-B8/B9-C9-Fab) VH: EVQLVETGGSLVQPGKSLKLTCATSGFTFSYAWMHWVRQSPDKQLQWVAQIKAKSNNYATYYAESVEGRFTISRDDSKSSVYLQMNSLKEEDTAIYYCRGVYYGLLGLDAWGQGTSVTVSS VL: DVVMTQTPVSLSVRLGGQVSISCRSSQSLVHNNGNTYLSWFLQKPGQSPQLLIYKVSNRFSGISDRFSGSASGTDFTLKISRVEPDDLGVYYCGQGTHYPFTFGSGTKLEIK
experimentalResult: 7.39
//
binder: 18G9-H11 Fab (Fab, V domains shown) VH: EVQLVETGGSLVQPGKSLKLTCATSGFTFSNAWIQWVRQSPEKQLEWVAQIKAKSNNYATYYAESVKGRFTISRDDSKSSVYLQMNSLKEEDTALYYCTWRHYYSSHTMDAWGQGTLVTVSS VL: DVVMTQTPVSLSVSLGGQVSISCRSSQSLVHNNGNTYLSWYLQKPGQSPQLLIYKVSNRFSGISDRFSGSGSGTDFTLKISRVAPTDLGVYYCGQGSQYPFTFGAGTKLELK
experimentalResult: 8.36
